Molecular target: T1, OCT2 DBD (POU domain) (Homo sapiens, UniProt P09086 195-357)
T1 sequence: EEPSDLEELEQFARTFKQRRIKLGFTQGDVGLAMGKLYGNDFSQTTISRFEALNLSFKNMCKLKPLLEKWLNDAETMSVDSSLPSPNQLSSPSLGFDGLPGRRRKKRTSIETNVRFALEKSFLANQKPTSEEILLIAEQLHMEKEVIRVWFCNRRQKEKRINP
Test: fluorescence anisotropy; 0.25 M Na+, no poly[d(I-C)]; FP: 5 nM probe, 10 mM Bis-Tris pH 6.5, 0.01% BSA, 0.15-0.35 M NaCl, 25 C overnight, Hill fit with nH = 2 (macroscopic KD of dimer); EMSA: 10 nM DNA, PBS, 25 C o
Settings: protein: recombinant; tags: N-terminal His6 removed by thrombin; chain copies: 2; label: 5'-HEX; blunt; self-complementary, 2 copies of the strand
property: Kd

Problem: Specify reported Kd for the binder shown: MORE 22-bp, HEX-labelled (dsDNA) DNA 1: TCCTCATGCATATGCATGAGGA DNA 2: TCCTCATGCATATGCATGAGGA
Solution: 88 nM
